Target: Torsin-1A-interacting protein 2 (Homo sapiens)
Assay: LULL1 binders on small-molecule microarray, primary screen, cell lysate, human LULL1 lysate, 635/667 nm fluorescence (AID 1092);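 further: probe is lysate of COS7 cells overexpressing human LULL1; score merges per-feature 667 nm fluorescence with signal-to-noise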
Conditions: hLULL1 lysate binding, 635 nm fluorescence, higher = more signal
parameter_measured: composite z-score
One number for each entry.

>>> value_measured("COC(=O)CC=C[C@@H](C)[C@@H](C=NO[C@@H]1O[C@H](COC(C)=O)[C@@H](OC(C)=O)[C@H](OC(C)=O)[C@H]1OC(C)=O)NS(=O)(=O)c1ccc(C)cc1")
-0.147
>>> value_measured("CON=CC[C@@H]1C=C[C@H](OC(C)=O)[C@@H](COC(C)=O)O1")
0.172
>>> value_measured("COc1ccc(COC(=O)NN=C2C[C@@H](O)[C@@H](O)[C@@H]3[C@@H]4C(=O)N(Cc5ccccc5)C(=O)[C@@H]4CC[C@H]23)cc1")
0.739
>>> value_measured("CCOC(=O)[C@H](CC(C)C)NC(=O)CCC1CC(OC(=O)NCCc2ccc(F)cc2)CC2(CCCC(COC(=O)NCCC(C)C)O2)O1 (some centres not stated)")
1.51
>>> value_measured("CC(CCN1CCCCc2nc(C)c(C)cc21)=NO[C@@H](C)c1cn([C@H](CO)Cc2ccccc2)nn1")
1.16
>>> value_measured("CCCNC(=O)OC[C@H]1O[C@H](CCON=C(C)C)C=C[C@@H]1Oc1ccc(OC)cc1")
0.876

Here is the next item to consider.
Incoming: Any idea what composite z-score was measured for CON=C(C)CCC(=O)OC[C@H]1O[C@H](c2ccccc2)C=C[C@@H]1Oc1ccc(OC)cc1 ?
Outgoing: -0.225

----------
Record form. Attribute: composite z-score. Fill in for each entry.
Test: compound binding in COS7 lysate, probe aLAP1, primary screen, cell lysate, small-molecule microarray (AID 1124);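 further: lysate comes from COS7 cells expressing LAP1 and is applied at 0.3 µg/mL; score merges spot fluorescence near 667 nm with signal-to-noise over triplicate slides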
Conditions: probe aLAP1, fluorescence, higher = more signal
Numbers only.

Some solved entries appear below for comparison.
>>> value_measured("CO[C@H]1COC(=O)CC=C[C@H](C)[C@@H](OC)COC(=O)[C@H](C)COC(=O)CC=C[C@@H]1C")
0.975
>>> value_measured("CCOC(=O)C1=NO[C@]2(C=C(Br)C3(OCCCO3)[C@H]3O[C@H]32)C1")
-0.157
>>> value_measured("CCCNC(=O)OC[C@H]1O[C@H](CCON=C(C)CCN2CCc3nc(CC)c(CC)cc3C2)C=C[C@@H]1Oc1ccc(OC)cc1")
0.0186
>>> value_measured("CON=C[C@@H](NS(=O)(=O)c1ccc(C)cc1)[C@H](C)C=CCC(=O)OC")
0.22
>>> value_measured("CO[C@H]1COC(=O)CC=C[C@H](C)COC(=O)[C@@H](C)NC(=O)CC=C[C@@H]1C")
0.487
>>> value_measured("CCN1C(=O)[C@H]2[C@H]3[C@H](O)[C@H](O)CC(=O)[C@H]3CC[C@H]2C1=O")
0.0555
>>> value_measured("C[C@@H](c1ccccc1)N1C(=O)[C@H]2[C@H]3[C@H](O)[C@H](O)CC(=NO[C@@H]4O[C@H](CO)[C@@H](O)[C@H](O)[C@H]4O)[C@@H]3CC[C@H]2C1=O")
-0.0315
>>> value_measured("CCOC(=O)NN=C1C[C@@H](O)[C@@H](O)[C@@H]2[C@@H]3C(=O)N(C(C)(C)C)C(=O)[C@@H]3CC[C@H]12")
-0.207

Each compound below has a recorded value; state its composite z-score.
1. CCOC(=O)[C@H](CC(C)C)NC(=O)CCC1CC(OC(=O)NCc2ccc3c(c2)OCO3)CC2(CCCC(COC(=O)NCC(c3ccccc3)c3ccccc3)O2)O1 (stereo not given in full)
2. COc1ccc(O[C@H]2C=C[C@@H](c3ccccc3)O[C@@H]2COC(=O)CCC(C)=NOC[C@@H](O)[C@H]2O[C@@H]3OC(C)(C)O[C@@H]3[C@H]2O)cc1
3. CO[C@H]1COC(=O)CC=C[C@H](C)[C@@H](OC)COC(=O)[C@@H](C)COC(=O)CC=C[C@@H]1C
4. C=CC[C@@H]1C=C[C@H](ON=C[C@@H](C)[C@H](OCc2ccccc2)C(C)C)[C@@H](CO)O1
5. CON=C1[C@H]2CCn3c(=O)n(-c4ccccc4)c(=O)n3[C@H]2[C@H](O)[C@@H]2O[C@H]12

Outgoing:
1. -0.144
2. -0.123
3. -0.145
4. 0.103
5. 0.0879

----------
Molecular target: Concanavalin-A (Canavalia ensiformis)
Experiment: ConA small-molecule binders, primary screen, artefact control for SMM control protein annotation, biochemical, small-molecule microarray, Alexa647 label, 635 nm (AID 1127);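 further: z combines 667 nm emission intensity with signal-to-noise across three replicate slides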
Conditions: ConA-A647 binding fluorescence, higher = more signal
Threshold check on composite z-score: at or above 0.3 gives Criterion met, strictly below gives Criterion not met.

>>> group("CCOC(=O)NN=C1C[C@@H](O)[C@@H](O)[C@@H]2[C@@H]3C(=O)N(c4cccc(Oc5ccccc5)c4)C(=O)[C@@H]3CC[C@H]12")
"Criterion met"

Could you now consider this next compound?
Incoming: Given the entry CO[C@@H]1COC(=O)CC=C[C@H](C)[C@H](OC)COC(=O)[C@H](C)NC(=O)CC=C[C@H]1C , answer whether its composite z-score meets or surpasses 0.3.
Outgoing: Criterion not met

----------
Assay: small-molecule microarray binders of probe aWnt5a, primary screen, biochemical, biotinylated probe, 635/667 nm fluorescence (AID 1113);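 further: score merges 667 nm fluorescence intensity with signal-to-noise per printed feature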
Details: higher = more signal
parameter_measured: composite z-score
Give bare numbers.

// worked examples, composite z-score included
>>> value_measured("CCOC(=O)[C@H](CC(C)C)NC(=O)CCC1CC(OC(=O)NCc2cccc3ccccc23)CC2(CCCC(COC(=O)NCCOc3ccccc3)O2)O1 (some centres not stated)")
0.0162
>>> value_measured("CCCCC#C[C@@H]1C=C[C@H](OC(C)=O)[C@@H](COC(C)=O)O1")
-0.118
>>> value_measured("CON=CC[C@@H]1C=C[C@H](OC(C)=O)[C@@H](COC(C)=O)O1")
0.0004

// each molecule listed below needs its composite z-score
1. COC(=O)CC=C[C@@H](C)[C@@H](C=NO[C@H](C)c1cn([C@H](CO)Cc2ccccc2)nn1)OC
2. CO[C@H]1COC(=O)CCC[C@@H](C)[C@H](OC)COC(=O)[C@@H]2CCCN2C(=O)CC=C[C@@H]1C
3. CCCNC(=O)OC[C@H]1O[C@H](CCON=C(C)CCC(=O)OC[C@H]2O[C@H](c3ccccc3)C=C[C@@H]2Oc2ccc(OC)cc2)C=C[C@@H]1Oc1ccc(OC)cc1
4. COc1ccc(COC(=O)NN=C2C[C@@H](O)[C@@H](O)[C@@H]3[C@@H]4C(=O)N(C5CCCCC5)C(=O)[C@@H]4CC[C@H]23)cc1

Outgoing:
[-0.0179, -0.236, -0.0685, -0.243]

----------
Test: basal S. cerevisiae growth modulation, no modifier, primary screen, OD600, strain BY4716, 24 h, basal condition (AID 1173)
Settings: OD600, 24 h, higher = more signal, called active from +8 up or from −8 down
Active and inactive are the calls of the source.
Would you kindly list z-score for each of these molecules?

Example molecules with recorded z-score:
>>> value_measured("O=C(NN=C1C[C@@H](O)[C@@H](O)[C@@H]2[C@@H]3C(=O)N(C4CCCCC4)C(=O)[C@@H]3CC[C@@H]12)OCc1ccccc1")
"-0.922 (inactive)"
>>> value_measured("CC(C)CON=C1C[C@@H](O)[C@@H](O)[C@@H]2[C@@H]3C(=O)N(Cc4ccc5c(c4)OCO5)C(=O)[C@@H]3CC[C@H]12")
"0.151 (inactive)"
>>> value_measured("CON=C(C)CCC(=O)OC[C@H]1O[C@H](c2ccccc2)C=C[C@@H]1Oc1ccc(OC)cc1")
"0.831 (inactive)"
>>> value_measured("CCC=CCCC(OC(=O)c1ccc(Br)cc1)C1=CCCCC1=O (configuration not stated)")
"-2.43 (inactive)"
>>> value_measured("Cn1c(=O)n2n(c1=O)[C@H]1[C@H](O)[C@@H]3O[C@@H]3C(=NOCc3ccccc3)[C@H]1CC2")
"0.0108 (inactive)"

// for each molecule in input: emit z-score
1. COC(=O)CC=C[C@@H](C)[C@@H](C=NO[C@@H]1O[C@H](COC(C)=O)[C@@H](OC(C)=O)[C@H](OC(C)=O)[C@H]1OC(C)=O)OC
2. CC(C)=CCCC(C)=CCON=C1C[C@@H](O)[C@@H](O)[C@@H]2[C@@H]3C(=O)N(C(C)(C)C)C(=O)[C@@H]3CC[C@H]12

Outgoing:
-0.298 (inactive)
-0.352 (inactive)

----------
Record form. Attribute: z-score. Fill in for each entry.
Experiment: adipocyte viability effects, profiling panel, cell-based, 3T3-L1 adipocytes, calcein-AM fluorescence, 48 h, basal (AID 1163); further: test concentration not given here
Details: 3T3-L1 adipocytes viability, higher = more signal
Answers are plain numbers.

Some solved entries appear below for comparison.
>>> value_measured("CCOC(=O)C1=NO[C@]2(C=C(Br)C3(OCCCO3)[C@H]3O[C@H]32)C1")
-0.188
>>> value_measured("CC(C)=CCCC(C)=CCON=C1C[C@@H](O)[C@@H](O)[C@@H]2[C@@H]3C(=O)N(c4cccc(Oc5ccccc5)c4)C(=O)[C@@H]3CC[C@@H]12")
0.18
>>> value_measured("CCOC(=O)NN=C1C[C@@H](O)[C@@H](O)[C@@H]2[C@@H]3C(=O)N(C(C)(C)C)C(=O)[C@@H]3CC[C@H]12")
-0.666
>>> value_measured("CCCNC(=O)OC[C@H]1O[C@H](CCON=C(C)C)C=C[C@@H]1Oc1ccc(OC)cc1")
0.008

For each entry beneath this line, provide reported z-score.
1. O=C(NN=C1C[C@@H](O)[C@@H](O)[C@@H]2[C@@H]3C(=O)N(C4CCCCC4)C(=O)[C@@H]3CC[C@H]12)OCc1ccccc1
2. CO[C@H]1COC(=O)CC=C[C@@H](C)[C@H](OC)COC(=O)[C@@H]2CCCN2C(=O)CC=C[C@@H]1C
3. COC(=O)[C@H]1[C@@H](O)[C@@]2(O)c3ccccc3O[C@@]2(c2ccccc2)[C@@H]1c1ccccc1
4. CCOC(=O)[C@H](CC(C)C)NC(=O)CCC1CC(OC(=O)NCc2cccc3ccccc23)CC2(CCCC(COC(=O)NCCOC)O2)O1 (stereo partly drawn)

Outgoing:
1. 0.0766
2. 0.308
3. -0.535
4. 0.217
